# System: Inhibin beta A chain (activin A)
# Test summary: INHBA (activin A) binders on microarrays, primary screen, biochemical, small-molecule microarray, 635 nm fluorescence scan (AID 1107);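 note: mouse activin A protein probed at 4.33 µg/mL on printed slides; score merges bound-protein fluorescence near 667 nm with spot signal-to-noise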
# Experimental parameters: small-molecule microarray binding, higher = more signal
Classify by measured composite z-score: MET if it is equal to or exceeds 1, NOT MET if it is smaller.

| Compound | Classification |
| --- | --- |
| C=CC[C@]1(C(=O)NCc2ccccc2)N=C(c2ccc(OCCCO)cc2)O[C@H]1c1ccccc1N=[N+]=[N-] | MET |

Attention now shifts to the item below.
// inclusive: composite z-score at least 1? input: `C[N+](C)(C)CCCCNC(=O)[C@H]1C[C@H]2C(=O)N3CCC[C@H]3C(=O)N2[C@H]1c1cccc(OCCO)c1` MET

---

# Test summary: S. cerevisiae RM11-1a growth modifiers, primary screen, strain RM11-1a, OD600, basal, 24 h (AID 1177);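 note: cultures grown under basal conditions with no added stressor; test concentration not given here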
# Experimental parameters: OD600, 24 h, higher = more signal, called active from +8 up or from −8 down
The source made the active and inactive calls.
Catalogue of z-score readings, one per entry.

Past entries and their recorded results:
| Compound | z-score |
| --- | --- |
| COC(=O)[C@@]1(Cc2ccccc2)N=C(c2ccc(OCCCO)cc2)O[C@H]1c1ccccc1 | 1.47 (inactive) |
| C=C(COC)C(=O)CC[C@@H](OC(C)=O)c1ccc(CO)o1 | -1.23 (inactive) |
| Cc1ccc(S[C@]2(C(=O)NCCCN(C)C)CC(=O)N(Cc3cc(C(F)(F)F)cc(C(F)(F)F)c3)[C@@H]2c2ccc(CO)cc2I)cc1 | -0.514 (inactive) |
| O=C1C[C@]2(c3ccc([N+](=O)[O-])cc3)C(=O)N(CC(F)(F)F)c3cc(CO)ccc3[C@H]2N1C1CCCCC1 | -0.0434 (inactive) |
| COc1cc2c(cc1O)C(c1cccs1)N(C)CC2 (centres undefined) | -0.225 (inactive) |

Fill blank: measured z-score of the compound `CCOC(=O)C[C@H]1[C@H](OC(=O)c2ccccc2-c2ccccc2)[C@@H](NC(=O)CC(C)C)c2cc(OCCCO)ccc2N1C(=O)Cc1ccc(OC)cc1` is ____. -0.0992 (inactive)

---

# Target entity: Focal adhesion kinase 1 (Homo sapiens)
# Test summary: small-molecule microarray binders of FAK, primary screen, biochemical, 635/667 nm fluorescence, BSA, DTT (AID 1130);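 note: composite of spot emission at 667 nm and signal to noise over triplicate slides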
# Experimental parameters: PTK2 binding, 635 nm fluorescence, higher = more signal
Classify by measured composite z-score: MET if it is equal to or exceeds 0.5, NOT MET if it is smaller.

| Compound | Target entity | Classification |
| --- | --- | --- |
| CC(C)N1C(=O)C[C@@](C(=O)NCC(F)(F)F)(c2ccc([N+](=O)[O-])cc2)[C@H]1c1ccc(CO)cc1 | Focal adhesion kinase 1 (Homo sapiens) | MET |
| COc1cc2c(cc1OC)CN(C(=O)[C@H]1[C@@H]3C(=O)O[C@@H](c4ccccc4)[C@@H](c4ccccc4)N3[C@@H](c3ccc(O)cc3)[C@]13C(=O)Nc1ccccc13)CC2 | Focal adhesion kinase 1 (Homo sapiens) | MET |
| CCCC#C[Si](O[C@H](CC)c1cn(Cc2cccc(Cl)c2)nn1)(C(C)C)C(C)C | Focal adhesion kinase 1 (Homo sapiens) | NOT MET |
| COc1ccc([Si](C)(C)[C@@H]2[C@@H](CCO)O[C@]3(C(=O)N(Cc4ccc(N(C=O)c5ccccc5)cc4)c4ccccc43)[C@H]2C)cc1 | Focal adhesion kinase 1 (Homo sapiens) | NOT MET |
| N#Cc1ccc(NN2C(C(O)C(c3ccccc3)c3ccccc3)C=CC3C(=O)N(c4ccccc4)C(=O)C32)cc1 (centres undefined) | Focal adhesion kinase 1 (Homo sapiens) | MET |
| CO[C@H]1O[C@H](CO)[C@@H](OC(=O)Nc2ccccc2)[C@H](OC(=O)Nc2ccccc2)[C@@H]1OC(=O)Nc1ccccc1 | Focal adhesion kinase 1 (Homo sapiens) | MET |
| CC(C)NC(=O)[C@@]1(C)c2ccccc2C(=O)N(Cc2cc(C(F)(F)F)cc(C(F)(F)F)c2)[C@H]1c1ccc(CO)cc1 | Focal adhesion kinase 1 (Homo sapiens) | NOT MET |
| [N-]=[N+]=Nc1ccccc1[C@@H]1OC(c2ccc(OCCCO)cc2)=N[C@]1(Cc1ccccc1)C(=O)N1CCOCC1 | Focal adhesion kinase 1 (Homo sapiens) | NOT MET |
| O=C1C[C@@](C(=O)NCCN2CCOCC2)(c2ccc([N+](=O)[O-])cc2)[C@@H](c2ccc(CO)cc2)N1CC12CC3CC(CC(C3)C1)C2 | Focal adhesion kinase 1 (Homo sapiens) | NOT MET |
| C=C[C@H](CO)NS(=O)(=O)c1ccc(Br)cc1 | Focal adhesion kinase 1 (Homo sapiens) | NOT MET |

// inclusive: composite z-score at least 0.5? input: `C=CCNC(=O)[C@@H]1[C@H]2C(=O)O[C@H](c3ccccc3)[C@H](c3ccccc3)N2[C@H](c2ccccc2OCCO)[C@@]12C(=O)N(C(=O)OCCOC)c1ccccc12` NOT MET

// inclusive: composite z-score at least 0.5? input: `C=C[C@H](C)[C@@H](OC(=O)Nc1ccc(OC)cc1)c1ccc(O)c2ccccc12` NOT MET

// inclusive: composite z-score at least 0.5? input: O=C1C2C=CC(C(O)CCc3ccccc3)N(Nc3ccccc3F)C2C(=O)N1c1ccccc1 (centres undefined) MET

// inclusive: composite z-score at least 0.5? input: `COCCOC(=O)N1C(=O)[C@@]2(c3cc(C#CCC(C(=O)OC)C(=O)OC)ccc31)[C@H](c1ccccc1OCCO)N1[C@H](c3ccccc3)[C@H](c3ccccc3)OC(=O)[C@H]1[C@@H]2C(=O)N1CCN(c2ncccn2)CC1` MET
